Data provenance is paper PMC5796218.

biological target: INSR 105–113 peptide (insulin receptor) (Homo sapiens)
Reported Kd is given for each of the following compounds.
Give just the numeric value; µM need not be written.

C=CCN1CC[C@]23c4c5ccc(O)c4O[C@H]2C(=O)CC[C@@]3(O)[C@H]1C5 : 20

Kd for INSR 105–113 peptide (insulin receptor) (Homo sapiens) with input Cc1cc2nc3c(=O)[nH]c(=O)nc-3n(C[C@H](O)[C@H](O)[C@H](O)CO)c2cc1C equals 500
